Every entry's value here was drawn from patent US20090208538A1.

molecular target: T1, HLA-A*1501 (human); test: iTopia affinity
T1 construct: possibly meant as HLA-B*1501
PROPERTY MEASURED: ED50 (µM)
Write down the numeric answer in µM and omit the unit.

Look over these answered cases.
BINDER | UNITS TEXT | ED50
TQYSALKVK [cdr2 351-359 TQYSALKVK] | µM | 7.6
KQRGISLLH [cdr2 339-347 KQRGISLLH] | µM | 22
RQHFVYDHV [cdr2 168-176 RQHFVYDHV] | µM | 39

From here, focus on the item given below.
Reported ED50 ( AVQTSRAAA [cdr2 378-386 AVQTSRAAA] ) = 51
